System: MCF7
Experiment: Concentration required for 50% inhibition of proliferation of breast cancer cell line, MCF-7 with respect to paclitaxel was tested in vitro after 72 hr of incubation
Type: functional, Homo sapiens
Here the recorded Ratio is given for each entry.
experimental_endpoint: Ratio

>>> recorded_result("CC(=O)O[C@H]1[C@@H]2[C@@H]3CN(C(=O)C(F)(F)F)[C@@H]3CC[C@@]2(C)[C@@H](OC(C)=O)[C@H](OC(C)=O)C2=C(C)[C@@H](OC(=O)[C@H](O)[C@@H](NC(=O)c3ccccc3)c3ccccc3)C[C@@H]1C2(C)C")
3.8
>>> recorded_result("CC(=O)O[C@H]1C(=O)[C@@]2(C)[C@H]([C@H](OC(=O)c3ccccc3)[C@]3(O)C[C@H](OC(=O)[C@H](O)[C@@H](NC(=O)c4ccccc4)c4ccccc4)C(C)=C1C3(C)C)[C@]1(OC(C)=O)CO[C@@H]1C[C@@H]2O")
1
>>> recorded_result("CC(=O)O[C@H]1[C@@H]2[C@@H]3CN[C@@H]3CC[C@@]2(C)[C@@H](OC(C)=O)[C@H](OC(C)=O)C2=C(C)[C@@H](OC(=O)[C@H](O)[C@@H](NC(=O)c3ccccc3)c3ccccc3)C[C@@H]1C2(C)C")
4.9
>>> recorded_result("COc1ccc(OC2O[C@@H](C(=O)O[C@H]3C[C@H]4[C@@H](OC(C)=O)[C@@H]5[C@@H]6CN(C(C)=O)[C@@H]6CC[C@@]5(C)[C@@H](OC(C)=O)[C@H](OC(C)=O)C(=C3C)C4(C)C)[C@H](c3ccccc3)N2C(=O)c2ccccc2)cc1 (stereo partly specified)")
9.3
>>> recorded_result("COc1ccc(OC2O[C@@H](C(=O)O[C@H]3C[C@H]4[C@@H](OC(C)=O)[C@@H]5[C@@H]6CN[C@@H]6CC[C@@]5(C)[C@@H](OC(C)=O)[C@H](OC(C)=O)C(=C3C)C4(C)C)[C@H](c3ccccc3)N2C(=O)c2ccccc2)cc1 (stereo partly specified)")
8.6
>>> recorded_result("CC(=O)O[C@H]1[C@@H]2[C@@H]3CN(C(C)=O)[C@@H]3CC[C@@]2(C)[C@@H](OC(C)=O)[C@H](OC(C)=O)C2=C(C)[C@@H](OC(=O)[C@H](O)[C@@H](NC(=O)c3ccccc3)c3ccccc3)C[C@@H]1C2(C)C")
3.6
